Source: PubChem BioAssay AID1159580

# assay: chemical genetic growth profiling, strain panel (AID 1159580);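 also: tested at 20 µM; growth read once vehicle control cultures reached saturation at 30 °C; 1 = growth at the plate median or of vehicle wells; lower values mean less growth of the strain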
# protocol.conditions: S. cerevisiae deletion strains, growth OD, locus YHR013C, strain ard1, hits give low values
In all, about 5,500 compounds went through this assay and about 2,000 (36%) were called active. Inconclusive results (about 18%) are left out. Some of the results follow.
Measured normalized growth values are reported for all entries that follow.
// no unit, no text: just the number

Example entries and their recorded answers appear below.
| smiles.entry | endpoint.result |
| --- | --- |
| COc1cc(OC)c2c(=O)c(OC)c(-c3ccc(OC)c(OC)c3)oc2c1 | 1.01 |
| COC1=CC(=O)C(C(=O)c2ccccc2)=CC1=O | 0.967 |
| COc1ccccc1/C=C\C(=O)O | 0.927 |
| CC[n+]1c(-c2ccccc2)c2cc(N)ccc2c2ccc(N)cc21 | 0.988 |
| O=C(O)C1=C[C@@H](O)[C@@H](O)[C@H](O)C1 | 0.949 |

# context switch: different compound, same normalized growth
IN: Name the reported normalized growth value associated with the compound COc1ccc(-c2cc(=O)c3c(O)cc(O[C@@H]4O[C@H](CO[C@H]5O[C@H](C)[C@@H](O)[C@H](O)[C@@H]5O)[C@@H](O)[C@H](O)[C@H]4O)cc3o2)cc1O
OUT: 1.02
